- Experimental system: T1, human NMI (N-myc Interacting protein), recombinant protein (human, UniProt Q13287 1-307, limits assumed)
- T1 construct: Gene ID: 9111; also called hNMI; antigen
- T1 sequence (looked up): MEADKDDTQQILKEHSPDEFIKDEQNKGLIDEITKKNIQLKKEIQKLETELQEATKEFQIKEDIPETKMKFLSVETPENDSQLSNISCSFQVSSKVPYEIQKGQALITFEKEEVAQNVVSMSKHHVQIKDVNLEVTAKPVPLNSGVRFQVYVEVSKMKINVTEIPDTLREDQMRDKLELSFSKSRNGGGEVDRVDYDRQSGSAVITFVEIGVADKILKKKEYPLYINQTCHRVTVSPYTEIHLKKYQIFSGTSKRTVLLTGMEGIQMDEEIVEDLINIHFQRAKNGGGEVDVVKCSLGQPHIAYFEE
- Method: ELISA EC50 against parent B-8
Property: Fold decrease in affinity
// unit must come after the numeric part

B-8-3 (antibody, V domains shown, also called B-8 Y33E (VH)) VH: QSLEESGGDLVKPGASLTLTCTASGFSFSSSYEMCWVRQAPGKGLEWIACIYAGSSGSTYYASWAKGRFTISKTSSTTVTLQMTSLTAADTATYFCAREYSYDDYGDFWGFNLWGPGTLVTVSS VL: ALVMTQTPSSVSAAVGGTVTINCQASQNIYTNLAWYQQKPGQPPKLLIYGASNLESGVPSRFKGSGSGTEYTLTISDLECDDAATYYCQSSLYSRIADRANAFGGGTEVVVK :: 0.57 fold
B-8-4 (antibody, V domains shown, also called B-8 Y61E (VH)) VH: QSLEESGGDLVKPGASLTLTCTASGFSFSSSYYMCWVRQAPGKGLEWIACIYAGSSGSTYEASWAKGRFTISKTSSTTVTLQMTSLTAADTATYFCAREYSYDDYGDFWGFNLWGPGTLVTVSS VL: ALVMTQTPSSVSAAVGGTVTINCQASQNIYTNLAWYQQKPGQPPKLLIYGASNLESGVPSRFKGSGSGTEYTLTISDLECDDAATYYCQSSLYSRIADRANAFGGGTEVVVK :: 0.57 fold

Next, consider the following binder.
B-8-5 (antibody, V domains shown, also called B-8 F111A (VH)) VH: QSLEESGGDLVKPGASLTLTCTASGFSFSSSYYMCWVRQAPGKGLEWIACIYAGSSGSTYYASWAKGRFTISKTSSTTVTLQMTSLTAADTATYFCAREYSYDDYGDFWGANLWGPGTLVTVSS VL: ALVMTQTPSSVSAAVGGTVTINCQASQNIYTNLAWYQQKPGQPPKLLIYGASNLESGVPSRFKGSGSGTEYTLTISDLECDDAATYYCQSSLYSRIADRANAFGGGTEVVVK yielded Fold decrease in affinity of 0.77 fold
